Provenance of the data: ChEMBL document CHEMBL5608259

# test.target: Protein arginine N-methyltransferase 1 (Homo sapiens)
# Sequence (Q99873 whole entry, looked up): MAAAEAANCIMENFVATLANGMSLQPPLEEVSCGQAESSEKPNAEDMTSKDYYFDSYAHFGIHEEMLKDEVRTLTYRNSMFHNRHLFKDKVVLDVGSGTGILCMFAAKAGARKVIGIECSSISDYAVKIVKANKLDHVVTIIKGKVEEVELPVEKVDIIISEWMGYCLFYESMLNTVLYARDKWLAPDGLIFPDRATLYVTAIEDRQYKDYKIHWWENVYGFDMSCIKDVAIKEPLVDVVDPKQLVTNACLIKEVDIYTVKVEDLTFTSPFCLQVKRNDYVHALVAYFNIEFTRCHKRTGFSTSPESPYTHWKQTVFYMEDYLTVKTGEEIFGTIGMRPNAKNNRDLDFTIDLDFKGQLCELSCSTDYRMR
# assay.protocol: Inhibition of human PRMT1 using H4-21peptide as substrate at 10 uM incubated for 10 mins by fluorescence based analysis relative to control
Each entry below carries its reported inhibition.

Nc1ncnc2c1ncn2[C@@H]1O[C@H](CSCCNC(=O)NCc2ccc(-c3ccccc3O)cc2)[C@@H](O)[C@H]1O    < 50%

Query molecule follows.
Output inhibition of "Nc1ncnc2c1ncn2[C@@H]1O[C@H](CSCCCNC(=O)NCc2ccccc2)[C@@H](O)[C@H]1O"
< 50%

###

# test.target: Histone-arginine methyltransferase CARM1 (Homo sapiens)
# assay.protocol: Inhibition of human PRMT4 using histone H3 as substrate and SAM as cofactor at 10 uM by radiometric HotSpot assay relative to control
Each entry below carries its reported inhibition.

N=C(NCCCSC[C@H]1O[C@@H](n2cnc3c(N)ncnc32)[C@H](O)[C@@H]1O)Nc1cccc(-c2ccoc2)c1    > 90%

Look up and report measured inhibition (Histone-arginine methyltransferase CARM1 (Homo sapiens)) for the following compound: "N=C(NCCSC[C@H]1O[C@@H](n2cnc3c(N)ncnc32)[C@H](O)[C@@H]1O)Nc1cccc(-c2ccc(Cl)cc2)c1"
> 90%

Look up and report measured inhibition (Histone-arginine methyltransferase CARM1 (Homo sapiens)) for the following compound: "Nc1ncnc2c1ncn2[C@@H]1O[C@H](CSCCNC(=O)NCc2ccc(-c3cn[nH]c3)cc2)[C@@H](O)[C@H]1O"
27%

Look up and report measured inhibition (Histone-arginine methyltransferase CARM1 (Homo sapiens)) for the following compound: "CCNC(=O)NCCSC[C@H]1O[C@@H](n2cnc3c(N)ncnc32)[C@H](O)[C@@H]1O"
27%

Look up and report measured inhibition (Histone-arginine methyltransferase CARM1 (Homo sapiens)) for the following compound: "Nc1ncnc2c1ncn2[C@@H]1O[C@H](CSCCNC(=O)NCc2ccc(-c3ccc(O)cc3)cc2)[C@@H](O)[C@H]1O"
27%

Look up and report measured inhibition (Histone-arginine methyltransferase CARM1 (Homo sapiens)) for the following compound: "N=C(NCCCSC[C@H]1O[C@@H](n2cnc3c(N)ncnc32)[C@H](O)[C@@H]1O)Nc1cccc(-c2ccc3c(c2)OCCO3)c1"
> 90%

###

# test.target: Protein arginine N-methyltransferase 6 (Homo sapiens, UniProt Q96LA8)
# Sequence (Q96LA8 whole entry, looked up): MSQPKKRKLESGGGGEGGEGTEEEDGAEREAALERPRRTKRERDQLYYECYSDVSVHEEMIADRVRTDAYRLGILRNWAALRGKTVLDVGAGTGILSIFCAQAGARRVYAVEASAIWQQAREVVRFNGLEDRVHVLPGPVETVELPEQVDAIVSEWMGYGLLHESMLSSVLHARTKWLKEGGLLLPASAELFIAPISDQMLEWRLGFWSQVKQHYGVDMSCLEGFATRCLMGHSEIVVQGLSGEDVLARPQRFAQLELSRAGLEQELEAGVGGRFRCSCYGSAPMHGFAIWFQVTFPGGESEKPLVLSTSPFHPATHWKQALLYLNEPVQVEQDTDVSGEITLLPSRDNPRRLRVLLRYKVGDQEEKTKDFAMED
# assay.protocol: Inhibition of human PRMT6 using GST-GAR as substrate and SAM as cofactor at 10 uM by radiometric HotSpot assay relative to control
Activity calls are given as the source filed them. The calls are words filed in the database; no cut-off is given here.
measure: inhibition

Please review the entries below; each comes with its answer.
N=C(NCCCSC[C@H]1O[C@@H](n2cnc3c(NCCCc4ccccc4)ncnc32)[C@H](O)[C@@H]1O)NCC1CCC1    Active
N=C(NCCCSC[C@H]1O[C@@H](n2cnc3c(N)ncnc32)[C@H](O)[C@@H]1O)Nc1cccc(-c2ccc3c(c2)OCCO3)c1    > 90%
Nc1ncnc2c1ncn2[C@@H]1O[C@H](CSCCCNCc2cccc(-c3cccc(F)c3)c2)[C@@H](O)[C@H]1O    50%
Nc1ncnc2c1ncn2[C@@H]1O[C@H](CSCCCNCc2cccc(-c3cccc4cn[nH]c34)c2)[C@@H](O)[C@H]1O    50%
N=C(NCCCSC[C@H]1O[C@@H](n2cnc3c(N)ncnc32)[C@H](O)[C@@H]1O)Nc1cccc(Br)c1    > 90%

Look up and report measured inhibition (Protein arginine N-methyltransferase 6 (Homo sapiens, UniProt Q96LA8)) for the following compound: "N=C(NCCCSC[C@H]1O[C@@H](n2cnc3c(N)ncnc32)[C@H](O)[C@@H]1O)Nc1cccc(-c2cccc(F)c2)c1"
> 90%

Look up and report measured inhibition (Protein arginine N-methyltransferase 6 (Homo sapiens, UniProt Q96LA8)) for the following compound: "Nc1ncnc2c1ncn2[C@@H]1O[C@H](CSCCNC(=O)NCc2ccc(-c3cccc(O)c3)cc2)[C@@H](O)[C@H]1O"
70%

Look up and report measured inhibition (Protein arginine N-methyltransferase 6 (Homo sapiens, UniProt Q96LA8)) for the following compound: "N=C(NCCCN)NCCCSC[C@H]1O[C@@H](n2cnc3c(NCCCc4ccccc4)ncnc32)[C@H](O)[C@@H]1O"
Active

Look up and report measured inhibition (Protein arginine N-methyltransferase 6 (Homo sapiens, UniProt Q96LA8)) for the following compound: "N=C(NCCCSC[C@H]1O[C@@H](n2cnc3c(N)ncnc32)[C@H](O)[C@@H]1O)Nc1cccc(-c2cccc([N+](=O)[O-])c2)c1"
> 90%

Look up and report measured inhibition (Protein arginine N-methyltransferase 6 (Homo sapiens, UniProt Q96LA8)) for the following compound: "N=C(NCCCSC[C@H]1O[C@@H](n2cnc3c(N)ncnc32)[C@H](O)[C@@H]1O)Nc1cccc(-c2ccc(C(F)(F)F)cc2)c1"
> 90%

Look up and report measured inhibition (Protein arginine N-methyltransferase 6 (Homo sapiens, UniProt Q96LA8)) for the following compound: "Nc1ncnc2c1ncn2[C@@H]1O[C@H](CSCCNC(=O)NCc2ccc(-c3ccc(O)cc3)cc2)[C@@H](O)[C@H]1O"
70%

Look up and report measured inhibition (Protein arginine N-methyltransferase 6 (Homo sapiens, UniProt Q96LA8)) for the following compound: "Nc1ncnc2c1ncn2[C@@H]1O[C@H](CSCCNCc2cccc(Br)c2)[C@@H](O)[C@H]1O"
50%
